All figures here come from patent US20200157248A1.

- testedOn: mutF4/Fmut4
- assayProtocol: ELISA, VHH on coated antibody
valueKind: ELISA OD (OD)
Value expressed in OD; do not type the unit.

Examples with their reported ELISA OD follow.
binder	valueKind	measuredValue
VHH clone 8G12 (VHH) VHH: EVQLVESGGGLVRAGGSLRLSCAASGSIFGTTNMGWYRQAPGTQRDLVATINNGGITNYADSVKGRFTISTDYTKNTVYLQMDRLKPEDTAVYYCNAEYHFRPPSWGQGTQVTVSS	ELISA OD	0.159
VHH clone 8G1 (VHH) VHH: QVQLVESGGGLVQPGGSLRLSCRASGAIFSINHMGWYRQAPGKQRELVATITSGGSTNYADSVKGRFTISRDNAKNTVYLQMNSLKPEDTAVYSCNLDWTTGWGSRRDYWGQGTQVTVSS	ELISA OD	0.128
VHH clone 8GO9 (VHH) VHH: QVQLVESGGGLVQAGGSLRLSCAASGRTFSRYGMSWFRQAPGKEREFVATISRGGSSTNYADSTKGRFTVSRDNAKNTVVLQMNSLKPEDTAVYYCAADTNWPVGAYEYWGQGTQVTVSS	ELISA OD	0.153
VHH clone 8B03 (VHH) VHH: EVQLVESGGGLVQPGGSLRLSCRASGAIFSINHMGWYRQAPGKQRELVATITSGGSTNYADSVKGRFTISRDNAKNTVYLQMNSLKPEDTAVYSCNLDWTTGWGSRRDYWGQGTQVTVSS	ELISA OD	0.221

Okay, now this binder:
**Query** Which value of ELISA OD has been reported for VHH clone 8G11 (VHH) VHH: EVQLVESGGGLVQAGGSLRLSCAASGRTFDIYTMGWFRQVPGKEREFVADIGRAGGTTHYADSVKGRFAISRDNANDAVHLQMNSLKPEDTAVYYCATKVVPRAGRRLLDYDYWGQGTQVTVSS in the records?
**Result** 0.123
